# Experimental protocol: 28-day repeat-dose oral toxicokinetics
# Type: in vivo, Bama minipig
# Experimental parameters: male, Bama, minipig, plasma, po, 0.1 g/kg, 0.1 g/kg/dose BID, Day 1, Male; mean ± SD; read-out: Cmax
Reported endpoint: Cmax (ng/mL)

Compound: OC[C@@H](O)[C@@H](O)[C@@H](O)CO [ribitol, (2R,3s,4S)-Pentane-1,2,3,4,5-pentol]
Reported endpoint: Cmax
Recorded result: 39800

###

# Experimental protocol: 28-day repeat-dose oral toxicokinetics
# Type: in vivo, CD-1 mouse
# Experimental parameters: male, CD-1, mouse, plasma, po, 1.5 g/kg, 1.5 g/kg/dose BID, Day 1, Male; read-out: AUC0-24

Molecule smiles: OC[C@@H](O)[C@@H](O)[C@@H](O)CO
AUC(0-t) (µg·h/mL): 972

###

# Experimental protocol: Single intravenous dose PK
# Format: in vivo, CD-1 mouse
# Experimental parameters: CD-1, mouse, plasma; IV 30 mg/kg, female; read-out: Vss
Reported endpoint: Vd (L/kg)

Compound: OC[C@@H](O)[C@@H](O)[C@@H](O)CO [ribitol, (2R,3s,4S)-Pentane-1,2,3,4,5-pentol]
Reported endpoint: Vd
Value unit: L/kg
Recorded result: 3

###

# Experimental protocol: 28-day repeat-dose oral toxicokinetics
# Format: in vivo, Bama minipig
# Experimental parameters: both sexes, Bama, minipig, plasma, oral, post dose and post second dose, Day 1 or Day 28, range

Molecule smiles: OC[C@@H](O)[C@@H](O)[C@@H](O)CO
Tmax: 0.5 to 2 h

###

# Experimental protocol: Single oral dose PK
# Type: in vivo
# Experimental parameters: Bama, minipig, plasma; single PO 1.0 g/kg, female; read-out: Tmax

Molecule smiles: OC[C@@H](O)[C@@H](O)[C@@H](O)CO
Value unit: min
Tmax: 40.2

###

# Experimental protocol: 7-day repeat-dose oral toxicokinetics
# Format: in vivo, Bama minipig
# Experimental parameters: female, Bama, minipig, plasma, po, 0.3 g/kg, 0.3 g/kg BID, Day 7, F
Reported endpoint: Cmax (µg/mL)

Molecule smiles: OC[C@@H](O)[C@@H](O)[C@@H](O)CO
Recorded result: 159

###

# Experimental protocol: Single intravenous dose PK
# Type: in vivo, CD-1 mouse
# Experimental parameters: both sexes, CD-1, plasma; mouse, IV 10 and 30 mg/kg, range; read-out: Systemic clearance (CLs)
# Method: The PK of ribitol was studied in male and female CD-1 mice following three IV doses at 10, 30, and 100 mg/kg (n=3/dose/sex). Blood samples were collected serially up to 24 hours post dose.

Molecule smiles: OC[C@@H](O)[C@@H](O)[C@@H](O)CO
clearance: 0.756 to 1.5 L/h/kg

###

# Experimental protocol: 28-day repeat-dose oral toxicokinetics
# Format: in vivo, Bama minipig
# Experimental parameters: male, Bama, minipig, plasma, po, 0.1 g/kg, 0.1 g/kg/dose BID, Day 28, Male; mean ± SD; read-out: AUC0-24

Molecule smiles: OC[C@@H](O)[C@@H](O)[C@@H](O)CO
AUC(0-t) / µg·h/mL: 215

###

# Experimental protocol: 7-day repeat-dose oral toxicokinetics
# Format: in vivo, Bama minipig
# Experimental parameters: female, Bama, minipig, plasma, po, 1 g/kg, 1.0 g/kg BID, Day 1, F

Compound: OC[C@@H](O)[C@@H](O)[C@@H](O)CO [ribitol, (2R,3s,4S)-Pentane-1,2,3,4,5-pentol]
Cmax, µg/mL: 299
